# tested.system: T1, Full-length FLAG-epitope-tagged human ERα (human, UniProt P03372 1-595)
# T1 sequence (looked up): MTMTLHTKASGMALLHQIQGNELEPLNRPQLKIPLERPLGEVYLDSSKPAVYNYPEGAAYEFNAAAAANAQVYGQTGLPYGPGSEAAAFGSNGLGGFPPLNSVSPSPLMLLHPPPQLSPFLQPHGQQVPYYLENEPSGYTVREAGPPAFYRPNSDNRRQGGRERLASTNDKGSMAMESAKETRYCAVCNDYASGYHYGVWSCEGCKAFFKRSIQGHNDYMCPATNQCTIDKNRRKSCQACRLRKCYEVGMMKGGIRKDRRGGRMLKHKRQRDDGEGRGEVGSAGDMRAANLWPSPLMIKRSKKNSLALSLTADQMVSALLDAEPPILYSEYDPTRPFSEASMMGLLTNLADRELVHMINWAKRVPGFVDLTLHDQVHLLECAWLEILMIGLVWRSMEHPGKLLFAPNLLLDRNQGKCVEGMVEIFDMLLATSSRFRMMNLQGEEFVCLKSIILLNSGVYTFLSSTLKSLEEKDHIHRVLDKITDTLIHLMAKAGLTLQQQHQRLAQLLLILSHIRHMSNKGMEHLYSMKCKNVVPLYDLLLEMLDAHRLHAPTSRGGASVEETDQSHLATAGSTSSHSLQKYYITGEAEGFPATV
# assay.protocol: fluorescence polarisation
measurement.type: IC50

INSERT INTO measurements (binder, value_observed) VALUES
  ('LTERHKILHRLLQE [SRC1 NR Box 2 peptide]', '~1000 nM');

# context switch: different binder, same IC50
Task item: Suppose we examine the binder QAQQKSLLQQLLTE [SRC1 NR Box 4 peptide] ; what IC50 value has been reported?
Reply: ~3800 nM

Entry source: paper PMC3708604
